Origin of the recorded values: patent US8119624B2

- experimental-target: Full-length glucokinase (beta cell isoform) (Homo sapiens)
- Construct: Full-length glucokinase (beta cell isoform) was His-tagged at N-terminus; His tag (N); made in house
- Sequence (P35557 1-465): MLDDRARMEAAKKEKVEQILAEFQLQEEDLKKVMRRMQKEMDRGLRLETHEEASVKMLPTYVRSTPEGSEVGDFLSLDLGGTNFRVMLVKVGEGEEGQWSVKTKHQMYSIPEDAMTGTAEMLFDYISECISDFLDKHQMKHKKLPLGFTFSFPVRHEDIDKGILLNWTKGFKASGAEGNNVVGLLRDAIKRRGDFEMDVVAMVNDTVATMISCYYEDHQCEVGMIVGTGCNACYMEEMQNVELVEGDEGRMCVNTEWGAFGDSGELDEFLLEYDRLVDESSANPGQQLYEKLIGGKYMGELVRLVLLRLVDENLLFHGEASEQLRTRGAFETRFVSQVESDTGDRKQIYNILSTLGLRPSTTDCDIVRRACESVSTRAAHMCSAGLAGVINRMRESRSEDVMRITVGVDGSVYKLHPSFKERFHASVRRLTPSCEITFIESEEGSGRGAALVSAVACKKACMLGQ
- method: Glucokinase biochemical assay (PK/LDH-coupled, NADH depletion at 340 nm): % activation, EC50, % max activation
- stated-conditions: 10 uM compound; 5 mM glucose; % Activation=(Va/Vo−1)×100; read-out: % Activation at 10 uM
Listed here are compounds together with their documented activation at 10 µM.
Supply the numeric figure in %, leaving out any unit text.

For orientation, consider the following solved cases.
Cc1cc2c(Oc3ccc(S(=O)(=O)N4CCC4)cc3)cc(C(=O)Nc3cnn(C)n3)cc2o1	113
Cn1ccc(NC(=O)c2cc(Oc3ccc(C(=O)N4CCC4)c(F)c3)c3c(c2)OC(C)(CO)C3)n1 (stereo not shown)	127
CCNC(=O)c1ccc(Oc2cc(C(=O)Nc3ccn(C)n3)cc3c2CC(C)(C)O3)cc1F	132
Cn1ccc(NC(=O)c2cc(Oc3ccc(C(=O)N4CC(F)(F)C4)cc3)c3c(c2)OC(C)(C)C3)n1	146
Cc1ccc(NC(=O)c2cc(Oc3ccc(S(C)(=O)=O)cc3)c3cc(C)oc3c2)nc1	108
Cc1cc2c(OC3CN(S(C)(=O)=O)C3)cc(C(=O)Nc3ccn(C)n3)cc2o1	108
COc1cnc(NC(=O)c2cc(Oc3ccc(S(=O)(=O)N4CCC4)cc3)c3cc(C)oc3c2)cn1	195
CC(=O)N1CC(Oc2cc(C(=O)Nc3ccn(C)n3)cc3c2CC(C)(C)O3)C1	62

[ask] Any idea what activation at 10 µM was measured for `Cc1ccc(NC(=O)c2cc(Oc3ccc(C(=O)N(C)C)c(F)c3)c3c(c2)OC(C)(C)C3)nc1` ?
[reply] 49.5

[ask] Any idea what activation at 10 µM was measured for `CC1(C)Cc2c(Oc3ccc(S(C)(=O)=O)cc3)cc(C(=O)Nc3ccc(C(N)=O)cn3)cc2O1` ?
[reply] 4.3

[ask] Any idea what activation at 10 µM was measured for `Cn1ncc(NC(=O)c2cc(Oc3ccc(C(=O)N4CCC4)c(F)c3)c3c(c2)OC(C)(C)C3)n1` ?
[reply] 243

###

- experimental-target: Full-length glucokinase (beta cell isoform) (Homo sapiens, UniProt P35557)
- Construct: Full-length glucokinase (beta cell isoform) was His-tagged at N-terminus; His tag (N); made in house
- Sequence (P35557 1-465): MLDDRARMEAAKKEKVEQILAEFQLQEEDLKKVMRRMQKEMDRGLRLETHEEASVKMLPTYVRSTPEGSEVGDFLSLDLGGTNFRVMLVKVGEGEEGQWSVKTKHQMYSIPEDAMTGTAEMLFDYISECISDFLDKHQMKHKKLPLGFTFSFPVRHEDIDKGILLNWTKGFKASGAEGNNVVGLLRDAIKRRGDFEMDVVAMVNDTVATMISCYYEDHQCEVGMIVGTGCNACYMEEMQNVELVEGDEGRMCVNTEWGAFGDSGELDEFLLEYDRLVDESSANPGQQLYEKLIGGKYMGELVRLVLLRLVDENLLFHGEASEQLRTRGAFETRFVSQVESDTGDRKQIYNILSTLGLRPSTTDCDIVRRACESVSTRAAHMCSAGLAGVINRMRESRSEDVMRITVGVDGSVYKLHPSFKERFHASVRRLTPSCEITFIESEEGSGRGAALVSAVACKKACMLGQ
- method: Glucokinase biochemical assay (PK/LDH-coupled, NADH depletion at 340 nm): % activation, EC50, % max activation
- stated-conditions: 10 uM compound; 5 mM glucose; % Activation=(Va/Vo−1)×100; read-out: % Activation at 10 uM
- Method: Full-length glucokinase (beta cell isoform) was His-tagged at N-terminus and purified by a Ni column followed by size exclusion chromatography. Glucose was obtained from Calbiochem, and other reagents were from Sigma. […] Glucokinase was added to the buffer mixture to initiate the reaction in the presence and absence of compound. Reaction was monitored by absorbance at 340nm due to the depletion of NADH. The initial reaction velocity was measured by the slope of a linear time course of 200-900 sec. […]
property-name: activation at 10 µM (%)
Supply the numeric figure in %, leaving out any unit text.

For orientation, consider the following solved cases.
Cn1ccc(NC(=O)c2cc(Oc3ccc(C(=O)N4CC[C@H](F)C4)c(F)c3)c3c(c2)OC(C)(C)C3)n1 [Example 63]	170
Cc1ccc(NC(=O)c2cc3c(c(Oc4ccc(S(C)(=O)=O)cc4)c2)CCO3)nc1 [Example 8]	127
CN(C)C(=O)c1ccc(Oc2cc(C(=O)Nc3ccn(C)n3)cc3c2CC(C)(C)O3)c(F)c1 [Example 46]	118
Cc1cc2cc(C(=O)Nc3ccn(C)n3)cc(O[C@@H](C)Cc3ccccc3)c2s1 [Example 328]	41.3
COc1ccnc(NC(=O)c2cc(Oc3ccc(S(C)(=O)=O)cc3)c3c(c2)OC(C)(C)C3)c1 [Example 18]	105

[ask] Any idea what activation at 10 µM was measured for CS(=O)(=O)c1ccc(Oc2cc(C(=O)Nc3ccccn3)cc3scnc23)cc1 [Example 372] ?
[reply] 29.3

[ask] Any idea what activation at 10 µM was measured for Cc1ccc(NC(=O)c2cc(Oc3ccc(S(C)(=O)=O)cc3)c3sccc3c2)nc1 [Example 363] ?
[reply] 52.3

[ask] Any idea what activation at 10 µM was measured for Cc1cc2cc(C(=O)Nc3ccn(C)n3)cc(O[C@@H](C)Cc3ccccc3)c2o1 [Example 340] ?
[reply] 41.2

[ask] Any idea what activation at 10 µM was measured for Cc1cc2c(Oc3ccc(S(=O)(=O)N4CCC4)cc3)cc(C(=O)Nc3ccc(Cl)cn3)cc2o1 [Example 300] ?
[reply] 53.4

[ask] Any idea what activation at 10 µM was measured for CNC(=O)c1ccc(Oc2cc(C(=O)Nc3cnn(C)n3)cc3c2CC(C)(C)O3)cn1 [Example 170] ?
[reply] 264

[ask] Any idea what activation at 10 µM was measured for CN(C)C(=O)c1ccc(Oc2cc(C(=O)Nc3ccn(C)n3)cc3c2CC(C)(C)O3)cc1Cl [Example 108] ?
[reply] 82.2

[ask] Any idea what activation at 10 µM was measured for CNC(=O)c1ccc(Oc2cc(C(=O)Nc3ccn(C)n3)cc3c2CC(C)(C)O3)cn1 [Example 166] ?
[reply] 203

[ask] Any idea what activation at 10 µM was measured for Cc1ccnc(NC(=O)c2cc(Oc3ccc(S(C)(=O)=O)cc3)c3c(c2)OC(C)(C)C3)c1 [Example 23] ?
[reply] 46.1

[ask] Any idea what activation at 10 µM was measured for Cc1ccc(NC(=O)c2cc(Oc3ccc(S(C)(=O)=O)cc3)c3cc(C(=O)N(C)C)oc3c2)nc1 [Example 285] ?
[reply] 121

[ask] Any idea what activation at 10 µM was measured for Cc1ccc(NC(=O)c2cc(Oc3ccc(S(C)(=O)=O)cc3)c3cc(CO)oc3c2)nc1 [Example 316] ?
[reply] 73.7

[ask] Any idea what activation at 10 µM was measured for CN(C)C(=O)c1ncc(Oc2cc(C(=O)Nc3ccn(C)n3)cc3c2CC(C)(C)O3)cc1F [Example 178] ?
[reply] 198

[ask] Any idea what activation at 10 µM was measured for Cn1ccc(NC(=O)c2cc(Oc3ccc(-c4ncon4)c(Cl)c3)c3c(c2)OC(C)(C)C3)n1 [Example 189] ?
[reply] 219

[ask] Any idea what activation at 10 µM was measured for Cc1cc2c(Oc3ccc(S(C)(=O)=O)cc3)cc(C(=O)Nc3ccc4c(n3)CCC4)cc2o1 [Example 254] ?
[reply] 53.3

[ask] Any idea what activation at 10 µM was measured for COc1cnc(NC(=O)c2cc(Oc3ccc(S(=O)(=O)N(C)C)c(F)c3)c3cc(C)oc3c2)cn1 [Example 307] ?
[reply] 153

[ask] Any idea what activation at 10 µM was measured for Cn1ccc(NC(=O)c2cc(Oc3ccc(S(C)(=O)=O)cc3)c3c(c2)OC(C)(CF)C3)n1 (stereo not shown) [Example 251] ?
[reply] 141

[ask] Any idea what activation at 10 µM was measured for Cn1ccc(NC(=O)c2cc(Oc3ccc(S(=O)(=O)C4CCC4)cc3)c3c(c2)OC(C)(C)C3)n1 [Example 123] ?
[reply] 189

[ask] Any idea what activation at 10 µM was measured for CN(C)C(=O)c1ccc(Oc2cc(C(=O)Nc3ccon3)cc3c2CC(C)(C)O3)cc1F [Example 144] ?
[reply] 103

[ask] Any idea what activation at 10 µM was measured for Cn1ccc(NC(=O)c2cc(Oc3ccc(C(=O)N4CC[C@H](O)C4)c(F)c3)c3c(c2)OC(C)(C)C3)n1 [Example 62] ?
[reply] 153
